- system.tested: adrenergic α2C receptor (Homo sapiens)
- Sequence (P18825 whole entry): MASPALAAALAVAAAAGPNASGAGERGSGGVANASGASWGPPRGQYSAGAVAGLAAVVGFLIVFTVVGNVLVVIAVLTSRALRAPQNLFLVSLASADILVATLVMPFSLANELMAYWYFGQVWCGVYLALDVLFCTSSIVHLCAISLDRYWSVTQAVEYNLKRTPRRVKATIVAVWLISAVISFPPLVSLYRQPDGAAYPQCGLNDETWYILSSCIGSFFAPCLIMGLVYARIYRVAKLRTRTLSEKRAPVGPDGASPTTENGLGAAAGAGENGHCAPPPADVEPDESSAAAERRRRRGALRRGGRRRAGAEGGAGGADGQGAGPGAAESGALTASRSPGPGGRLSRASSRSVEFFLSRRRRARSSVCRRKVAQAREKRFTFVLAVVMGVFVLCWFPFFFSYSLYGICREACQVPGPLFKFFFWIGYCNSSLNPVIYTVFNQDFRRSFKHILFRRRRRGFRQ
- protocol.details: Binding assay α2C (h), [3H]RX 821002, CHO cells
- Set-up: expressed in transfected cells; host or cells: CHO cells
- cond: read-out: α2C [%]
Exercise: state measured inhibition at 1 µM for each of the molecules provided.
Numbers only, in %.

Go through the items and report each one's inhibition at 1 µM.
1. O=S(=O)(NCCCCN1CCN(c2nsc3ccccc23)CC1)c1ccc2c(c1)OCO2
2. O=S(=O)(NCCCCN1CCC(c2noc3cc(F)ccc23)CC1)c1ccc2cc(Cl)ccc2c1
3. O=c1[nH]c2ccc(S(=O)(=O)NCCCN3CCN(c4nsc5ccccc45)CC3)cc2o1
4. O=S(=O)(NCCCN1CCC(c2noc3cc(F)ccc23)CC1)c1cc2cccnc2[nH]1
5. O=c1[nH]c2cccc(N3CCN(CCCNS(=O)(=O)c4ccc(Cl)cc4)CC3)c2[nH]1
6. O=S(=O)(NCCCCN1CCN(c2cccc3[nH]ccc23)CC1)c1ccccc1
7. O=S(=O)(NCCN1CCN(c2nsc3ccccc23)CC1)c1ccc2ccccc2c1

Ans:
1: 101; 2: 100; 3: 93; 4: 94; 5: 59; 6: 100; 7: 98

Q: Reported inhibition at 1 µM for adrenergic α2C receptor (Homo sapiens), given O=S(=O)(NCCCCN1CCN(c2nsc3ccccc23)CC1)c1cccc2ccccc12 ?
Ans: 100
